Origin of values: patent US10577363B2

target: UniProt:Q9H7B4; assay: SMYD3 cell assay (Trimethyl-MEKK2 In-Cell Western in 293T/17 cells); assay type: cell-based; details: 293T/17 cells; read-out: SMYD3 Cell IC50 (μM)*
Sequence (Q9H7B4 whole entry): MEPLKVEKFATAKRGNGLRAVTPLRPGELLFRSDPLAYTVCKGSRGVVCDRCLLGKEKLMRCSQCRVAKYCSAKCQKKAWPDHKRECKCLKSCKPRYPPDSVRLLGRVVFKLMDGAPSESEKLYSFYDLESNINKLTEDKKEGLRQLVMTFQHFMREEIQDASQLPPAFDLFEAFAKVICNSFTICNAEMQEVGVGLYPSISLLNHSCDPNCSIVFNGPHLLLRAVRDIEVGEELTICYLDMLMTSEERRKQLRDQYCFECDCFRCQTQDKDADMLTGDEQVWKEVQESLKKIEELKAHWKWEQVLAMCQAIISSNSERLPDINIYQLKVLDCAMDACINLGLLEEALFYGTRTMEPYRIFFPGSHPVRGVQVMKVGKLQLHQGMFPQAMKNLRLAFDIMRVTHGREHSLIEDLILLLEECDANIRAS
Counter-ions that a name gives are not always drawn.
quantity: IC50 (µM)
// units = µM; emit number, no label

Query IC50 for C[C@H]1C[C@@H](NC(=O)c2cc(C3CC3)on2)CCN1S(=O)(=O)c1ccc(NCCN2CCOCC2)nc1 [Cpd. No. 458, dihydrochloride]
0.581

// Input: NCCCS(=O)(=O)N1CC[C@H](NC(=O)c2cc(C3CC3)on2)C[C@@H]1Cc1ccccc1 [compound 424] . Output its IC50 only.
1.8

For the compound NCCCS(=O)(=O)N1CCC(NC(=O)c2cc(C3CC3)on2)C[C@H]1c1ccccc1 (some centres unmarked) [compound 481] , report IC50.
4.47

Please give measured IC50 of the following entry: C[C@@H]1C[C@H](NC(=O)c2cc(C3CC3)on2)CCN1S(=O)(=O)CC1CCNCC1 (single isomer, unassigned) [Cpd. No. 418]
0.197

Please report IC50 for the following compound: C[C@@H]1C[C@H](NC(=O)c2cc(C3CC3)on2)CCN1S(=O)(=O)c1ccc(N(C)CCN)nc1 [compound 463]
4.33

Provide measured IC50 value, entry: C[C@H]1C[C@@H](NC(=O)c2cc(C3CC3)on2)CCN1S(=O)(=O)N1CCN(C)CC1 [Cpd. No. 279]
0.266

Provide one value: measured IC50 of CC(C)CNc1ccc(S(=O)(=O)N2CC[C@H](NC(=O)c3cc(C4CC4)on3)C[C@@H]2C)cn1 [compound 450]
3.48

Answer with the recorded IC50 for the compound listed here: N[C@H]1CC[C@H](C(=O)N2CC[C@@H](NC(=O)c3cc(C4CC4)on3)C[C@H]2Cc2ccccc2)CC1 [compound 309]
16.8

Please give measured IC50 of the following entry: CC(=O)Nc1ccc(S(=O)(=O)N2CC[C@@H](NC(=O)c3cc(C4CC4)on3)C[C@H]2C)cc1 [compound 330]
29.3

Provide only the value of recorded IC50 for N[C@H]1CC[C@H](C(=O)N2CC[C@H](NC(=O)c3cc(C4CC4)on3)C[C@@H]2Cc2ccccc2)CC1 [compound 310]
8.1

Please look at this compound and report its IC50: C[C@H]1C[C@@H](NC(=O)c2cc(C3CC3)on2)CCN1S(=O)(=O)c1cccc(C(N)=O)c1 [compound 477]
3.26

Assign IC50 to the following record: C[C@H]1C[C@@H](NC(=O)c2cc(C3CC3)on2)CCN1S(=O)(=O)c1cccc(C#N)c1 [compound 398]
1.21
